tested on: biotinyl-Trp-oxazolone; assay: self-aminoacylation, catalytic enhancement (BWO) (fold over background); higher = more active; k-Seq, kA / k0A0; sequences stand for … in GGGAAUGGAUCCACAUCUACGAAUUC…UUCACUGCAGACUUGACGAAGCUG
Fewer inactive variants are shown than the library holds.
Task for the reader: assign each of the following sequences its reported self-aminoacylation.
Answers are plain numbers.

Some sequences with recorded self-aminoacylation:
1. CUUCUCCUAGGUCAUCGGGUG [Fam2.2 aminoacylation ribozyme variant]	6.52
2. AUCCACCUAGGUCAUCGGGUC [Fam2.2 aminoacylation ribozyme variant]	2.68
3. AUCGACCUAGGUCAUCGGGUG [Fam2.2 aminoacylation ribozyme variant]	6.33
4. AAGUCUGCUAAUAGUCGAAAG [Fam3.1 aminoacylation ribozyme variant]	6.05
5. AAGUUAGCUUAUAGUCGCAAG [Fam3.1 aminoacylation ribozyme variant]	1.9

Please report self-aminoacylation for every entry that follows.
1. AUUACGCUGGUCAUAGAGUGA [Fam2.1 aminoacylation ribozyme variant]
2. AUUCAGCUAGGUCCUCGGGUG [Fam2.2 aminoacylation ribozyme variant]
3. ACUACCCUGGUCAACGAGUGA [Fam2.1 aminoacylation ribozyme variant]
4. AAUCACCUAGGUCCUCGGGUG [Fam2.2 aminoacylation ribozyme variant]

(A)
1: 4.14; 2: 6.56; 3: 6.49; 4: 5.34

---

Assignment: determine reported self-aminoacylation for the given sequences.
system: biotinyl-Met-oxazolone; assay: self-aminoacylation, catalytic enhancement (BMO) (fold over background); higher = more active; k-Seq, kA / k0A0; sequences stand for … in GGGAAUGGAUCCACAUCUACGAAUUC…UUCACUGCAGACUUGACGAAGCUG
Fewer inactive variants are shown than the library holds.
Answers are plain numbers.

Reference set (5 entries):
1) CCACGCUUCAAGCAAUCGGUC [Fam1B.1 aminoacylation ribozyme variant]	1.37
2) CCACACUUCAGGCAAUCGUUC [Fam1B.1 aminoacylation ribozyme variant]	0.618
3) AUUAACCGAGGUCAUCGGGUG [Fam2.2 aminoacylation ribozyme variant]	7.9
4) CCACACUUCUAGCAAUCGGUU [Fam1B.1 aminoacylation ribozyme variant]	0.978
5) CCACACUUCCAGCAACCGGUC [Fam1B.1 aminoacylation ribozyme variant]	0.879

For each of the sequences below, state self-aminoacylation.
1. CCACACUACAAGCAAUCGUUC [Fam1B.1 aminoacylation ribozyme variant]
2. AAGUUUGCGAAUCGUCGCAAG [Fam3.1 aminoacylation ribozyme variant]
3. AUUACCCUAGUCAUCAAGUGA [Fam2.1 aminoacylation ribozyme variant]

(A)
[0.548, 1.19, 3.73]

---

test system: biotinyl-Val-oxazolone; assay: self-aminoacylation, catalytic enhancement (BVO) (fold over background); higher = more active; k-Seq, kA / k0A0; sequences stand for … in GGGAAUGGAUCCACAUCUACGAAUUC…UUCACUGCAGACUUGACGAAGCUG
Variants at the floor of the assay were thinned out.
Give measured self-aminoacylation for each item. Keep answers brief.
Numbers only.

1. AUACACCUUGGUCAUCGGGUG [Fam2.2 aminoacylation ribozyme variant]	2.89
2. GUUCACCUAGGUUAUCGGGUG [Fam2.2 aminoacylation ribozyme variant]	3.44
3. ACUCACCUAGGUCUUCGGGUG [Fam2.2 aminoacylation ribozyme variant]	4.96
4. AAGUUUGCGAAGAGUCGCAAG [Fam3.1 aminoacylation ribozyme variant]	1.21

# input for lookup
(Q) Return value of self-aminoacylation for input CUUACACUGGUCAUCGAGUGA [Fam2.1 aminoacylation ribozyme variant] , no commentary.
(A) 2.69

---

tested on: biotinyl-Ile-oxazolone; experiment: self-aminoacylation, catalytic enhancement (BIO) (fold over background); higher = more active; k-Seq, kA / k0A0; sequences stand for … in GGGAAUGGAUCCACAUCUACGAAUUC…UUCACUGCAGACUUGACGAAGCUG
Variants at the floor of the assay were thinned out.
Outcome label depends on self-aminoacylation relative to 3: at/above gives rule met, below gives rule not met.

Consider the following illustrative entries.
1) AAGUUUCCUAAAAGUCGCAAG [Fam3.1 aminoacylation ribozyme variant]	rule not met
2) AUUACCUUGGACAUCGAGUGA [Fam2.1 aminoacylation ribozyme variant]	rule met
3) AUUACCCUGAUCUUCGAGUGA [Fam2.1 aminoacylation ribozyme variant]	rule not met

(Q) Hello, I need to know if CCACAAUUCAGGCAAUCGGUC [Fam1B.1 aminoacylation ribozyme variant] has measured self-aminoacylation not below 3. Thanks!
(A) rule not met

---

Please provide measured self-aminoacylation for the entries that follow.
system: biotinyl-Val-oxazolone; assay: self-aminoacylation, catalytic enhancement (BVO) (fold over background); higher = more active; k-Seq, kA / k0A0; sequences stand for … in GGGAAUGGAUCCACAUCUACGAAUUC…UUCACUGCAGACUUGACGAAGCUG
Fewer inactive variants are shown than the library holds.
Give bare numbers.

I would be grateful if you could provide self-aminoacylation for each of the following entries.
1. CCACACUUUGAGCAAUCGGUC [Fam1B.1 aminoacylation ribozyme variant]
2. AUUCACGUAGGUCUUCGGGUG [Fam2.2 aminoacylation ribozyme variant]

(A)
1. 1.06
2. 5.24

---

system: biotinyl-Trp-oxazolone; assay: self-aminoacylation, catalytic enhancement (BWO) (fold over background); higher = more active; k-Seq, kA / k0A0; sequences stand for … in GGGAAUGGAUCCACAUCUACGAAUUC…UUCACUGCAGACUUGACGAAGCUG
Fewer inactive variants are shown than the library holds.
// rule not met strictly below 0.7 in self-aminoacylation; rule met otherwise

(Q) Hi team, for AUUCAACUAAGUCAUCGGGUG [Fam2.2 aminoacylation ribozyme variant] , is the recorded self-aminoacylation at or above 0.7?
(A) rule met

(Q) Determine whether measured self-aminoacylation meets or exceeds 0.7 for CCACACUAUAAGCAAUCGGUC [Fam1B.1 aminoacylation ribozyme variant]
(A) rule not met

(Q) Please tell me: is the sequence CCACACUUCCAGCAACCGGUC [Fam1B.1 aminoacylation ribozyme variant] at or over 0.7 in terms of self-aminoacylation?
(A) rule met

(Q) Test whether the sequence AUUACCAUGGUCAUCUAGUGA [Fam2.1 aminoacylation ribozyme variant] records self-aminoacylation of 0.7 or higher.
(A) rule met

(Q) self-aminoacylation >= 0.7 for ACUCACCUAGGUCAGCGGGUG [Fam2.2 aminoacylation ribozyme variant] ?
(A) rule met

---

test system: biotinyl-Trp-oxazolone; experiment: self-aminoacylation, catalytic enhancement (BWO) (fold over background); higher = more active; k-Seq, kA / k0A0; sequences stand for … in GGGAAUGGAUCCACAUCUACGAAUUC…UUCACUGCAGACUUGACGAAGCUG
This sample holds only a part of the variants without activity.
QUANTITY KIND: self-aminoacylation

I have 4 sequences here; please give me self-aminoacylation for each one.
1. CUACUUCAAACAAUUGUUCUG [Fam1A.1 aminoacylation ribozyme variant]
2. AUUACCUUGGUCAUCGAGUGG [Fam2.1 aminoacylation ribozyme variant]
3. CUACUUCAAACAAUCAUUCUG [Fam1A.1 aminoacylation ribozyme variant]
4. CUUCUUCAAACAAUCGGUCCG [Fam1A.1 aminoacylation ribozyme variant]

(A)
1: 0.367; 2: 0.873; 3: 1.55; 4: 2.74

Please go through the list and note self-aminoacylation for each sequence.
1. CUACUUCAAACAAUCUAUCUG [Fam1A.1 aminoacylation ribozyme variant]
2. AUUACCCCGGUCAUCGUGUGA [Fam2.1 aminoacylation ribozyme variant]
3. ACGUUUGCUAAUAGGCGCAAG [Fam3.1 aminoacylation ribozyme variant]
4. CAACAUCAAACAAUCGGUCUG [Fam1A.1 aminoacylation ribozyme variant]
5. CUACUUCAAACGAUCGGGCUG [Fam1A.1 aminoacylation ribozyme variant]
6. UUACUCCAAACAAUCGGUCUG [Fam1A.1 aminoacylation ribozyme variant]
7. CCACCCUUCGAGCAAUCGGUC [Fam1B.1 aminoacylation ribozyme variant]

(A)
1: 0.474; 2: 2.98; 3: 0.911; 4: 3.73; 5: 1.28; 6: 2.69; 7: 2.58

Provide the reported self-aminoacylation of each entry below, same order.
1. AUUACCGUGGUCAUCGAGUAA [Fam2.1 aminoacylation ribozyme variant]
2. AUUCACCUACGUCAUCGGGUG [Fam2.2 aminoacylation ribozyme variant]

(A)
1.93
4.79

Required: self-aminoacylation, one value per sequence below.
1. UUUCACCUAGGUCAUCGAGUG [Fam2.2 aminoacylation ribozyme variant]
2. CUACUUCAAACUAGCGGUCUG [Fam1A.1 aminoacylation ribozyme variant]
3. AUUCUCCUGGUCAUCGAGUGA [Fam2.1 aminoacylation ribozyme variant]

(A)
1. 4.82
2. 0.732
3. 7.91

Batch: self-aminoacylation for all items listed.
1. CUACACUUAAAGCAAUCGGUC [Fam1B.1 aminoacylation ribozyme variant]
2. AUAACCCUGGUCAUCCAGUGA [Fam2.1 aminoacylation ribozyme variant]

(A)
[0.459, 6.17]
